property.measured: GI50

Measured GI50 (HCT-15), entry O=c1[nH]nc(Cc2ccc(Cl)cc2)n1O : > 100 µM

Measured GI50 (HCT-15), entry COC(=O)C(C)(/N=C/c1ccccc1)c1ccccc1 (centres undefined) : > 100 µM

Measured GI50 (HCT-15), entry O=c1c(C(c2ccc(C(c3c(O)oc4cc(O)ccc4c3=O)c3c(O)oc4cc(O)ccc4c3=O)cc2)c2c(O)oc3cc(O)ccc3c2=O)c(O)oc2cc(O)ccc12 : > 100 µM

Measured GI50 (HCT-15), entry CNc1nc(=S)[nH]c2sc3c(c12)CCCC3 : > 75 µM

Measured GI50 (HCT-15), entry O=C1c2cccc3cccc(c23)C2NCCCN12 (centres undefined) : > 100 µM

Measured GI50 (HCT-15), entry C=C(C)C1CC/C(C)=C/CCC2(C)OC2CC/C(CO)=C\C1O (centres undefined) : > 100 µM

Measured GI50 (HCT-15), entry CC(C)(C)c1cc(C(=O)O)c2c(c1)C(=O)OC2(c1ccccc1)c1ccccc1C(=O)O (centres undefined) : > 100 µM

Measured GI50 (HCT-15), entry CCOC(=O)c1c(N2CCOCC2)ncn(-c2cccc(Cl)c2)c1=O : > 100 µM

Measured GI50 (HCT-15), entry CN(CC(=O)O)Cc1c[nH]c2ccccc12 : > 100 µM

---

Tested on: SR
Assay: NCI tumour cell line growth inhibition, 48 h
Active and inactive are the calls of the source. Rule as the data show it: active = GI50 up to about 1.1 µM and inactive = higher.
Result category, one only: y for active, n for inactive

Input: Status in this test for CC(C)c1ccc(/C=C2/C=C(c3ccc4ccccc4c3)OC2=O)cc1 ?
Output: n

Input: Status in this test for CC[C@@]12N=C(N(C)C)C[C@]1(O)ON=C2C ?
Output: n

Input: Status in this test for C[N+]1(CCC[N+]2(C)CC3C4C=CC(CC4)C3C2)CCOCC1 (stereo not given) ?
Output: n

Input: Status in this test for O=C(c1ccccc1)c1nnn(Cc2ccccc2Cn2nnc(C(=O)c3ccccc3)c2C(=O)c2ccccc2)c1C(=O)c1ccccc1 ?
Output: n

Input: Status in this test for CC1=C2[C@H](c3ccccc3)C3C=CC2(c2ccccc23)N(C(=O)C(c2ccccc2)c2ccccc2)C1=O (stereo not given in full) ?
Output: n

Input: Status in this test for N#CC1C(C#N)C2(c3ccccc3)C(c3ccccc3)=NN(c3ccccc3)CC12 (stereo not given) ?
Output: n

Input: Status in this test for CCCCCCCCCCCCCC(=O)O[C@H]1CC[C@H](NC(=O)[C@H](OC)[C@H](O)[C@@H](O)[C@H](O)/C=C/C(C)C)C(=O)NC1 [BENGAMIDE A] ?
Output: y

Input: Status in this test for OCCCNCc1ccccn1 ?
Output: n

Input: Status in this test for Cc1cnc2c(c1)C(=O)C1=C(OC(C)(C)CC1O)C2=O (stereo not given) ?
Output: n

Input: Status in this test for CCN(CC)CCCC(C)Nc1ccnc(/C=C/c2ccc(Cl)cc2)c1 (stereo not given) ?
Output: n

Input: Status in this test for C[n+]1ccc(/C2=C3\C=CC(=N3)/C(c3cc[n+](C)cc3)=c3/cc/c([nH]3)=C(\c3cc[n+](C)cc3)C3=N/C(=C(/c4cc[n+](C)cc4)C4C=CC2N4)C=C3)cc1 ?
Output: n

Input: Status in this test for COc1ccc2c(c1)[n+]([O-])c(-c1ccc(C)cc1)c(N)[n+]2[O-] ?
Output: n

Input: Status in this test for CC1(C)S[C@H](c2ccccc2C(=O)O)N[C@@H]1CC(=O)O ?
Output: n

Input: Status in this test for NCCCc1nonc1C(=O)O ?
Output: n

Input: Status in this test for C=C(C)C1CC/C(C)=C/CCC2(C)OC2CC/C(CO)=C\C1O (stereo not given) ?
Output: n

Input: Status in this test for CSC(SC)=C(C(=O)O)P(=O)(O)O ?
Output: n

Input: Status in this test for CNC(=S)NNC(=O)c1c(C)nc2sccn12 ?
Output: n

Input: Status in this test for COC1(OC)C2(Cl)C3=CCCC=C3C1(Cl)C(Cl)=C2Cl ?
Output: n

Input: Status in this test for CC(C)(c1ccc(OC#N)cc1)c1ccc(OC#N)cc1 ?
Output: n

Input: Status in this test for CCCCn1c(C)c2c(c1C)C(=O)N(CCN1CCN(c3ccccc3Cl)CC1)C2=O ?
Output: n

Input: Status in this test for CCOC(=O)c1cc(C2=CCNC2=O)c(-c2cc(C)no2)[nH]1 ?
Output: n

Input: Status in this test for O=C(c1ccccc1)c1ccc(N2C(=O)/C(=C/c3ccccc3S)N=C2c2ccccc2)c(N2C(=O)/C(=C/c3ccccc3S)N=C2c2ccccc2)c1 ?
Output: n

Input: Status in this test for CC(C)(Oc1ccc(/C=C/C(=O)c2ccccc2)cc1)C(=O)Nc1c(Cl)cccc1Cl ?
Output: n

Input: Status in this test for COc1ccc(-c2cc(-c3ccccc3)n(C3OCC(OC(C)=O)C(OC(C)=O)C3OC(C)=O)c(=S)c2C#N)cc1 (stereo not given) ?
Output: n

Input: Status in this test for COC(=O)c1cc(C(=CCC[C@H]2CC[C@@]3(C)C(CCC4C3CC[C@@]3(C)C4CC[C@@H]3C(C)CCCC(C)C)C2)c2cc(Cl)c(O)c(C(=O)OC)c2)cc(Cl)c1O (stereo not given in full) ?
Output: n

Input: Status in this test for Cc1ccc2c(c1)CC1(Cc3cccc(C)c3C1=O)C2=O (stereo not given) ?
Output: n

Input: Status in this test for CC(=O)OCC1OC(N2C(=O)CC(N)=Nc3ccccc32)C(OC(C)=O)C(OC(C)=O)C1OC(C)=O (stereo not given) ?
Output: n

Input: Status in this test for CC(C#N)(NO)C(C)(C#N)NO (stereo not given) ?
Output: n

Input: Status in this test for CCOC(=O)NC(C(F)(F)F)(C(F)(F)F)P(=O)(OCC)OCC ?
Output: n

Input: Status in this test for CCOC(=O)NC(Nc1ccc(OC(F)(F)F)cc1)(C(F)(F)F)C(F)(F)F ?
Output: n

Input: Status in this test for COc1ccc(-c2cc(-c3ccco3)c(C#N)c(=O)n2C2OC(COC(C)=O)C(OC(C)=O)C(OC(C)=O)C2OC(C)=O)cc1 (stereo not given) ?
Output: n

Input: Status in this test for Clc1ccc(C2=CC(c3ccccc3)N3C(=N[C@H]4CCCC[C@@H]43)N2)cc1 (stereo not given in full) ?
Output: n

Input: Status in this test for NC1=NC(=O)/C(=C2\CCNC(=O)c3[nH]c(Br)cc32)N1 [HYMENIALDISINE] ?
Output: y

Input: Status in this test for c1ccc2c(c1)ncn2C1CCCCO1 (stereo not given) ?
Output: n

Input: Status in this test for COc1ccc(C(=O)CC(=O)C(=O)Nc2ccc(C)c(C)c2)cc1 ?
Output: n
